tested on: SARS-CoV-2 (βCoV/KOR/KCDC03/2020); assay: microbe, parasite or virus in culture; type: cell-based; details: Severe acute respiratory syndrome coronavirus 2, Vero, 24 h
pIC50: −log10 of the molar value.
endpoint-label: pIC50

Measured pIC50, O=C(OC[C@H]1O[C@@H]([S+]([O-])c2ccccc2)[C@H](OC(=O)c2ccccc2)[C@@H](OC(=O)c2ccccc2)[C@@H]1OC(=O)c1ccccc1)c1ccccc1 (stereo partly shown) [7a] : < 4.30

The compound identified as O=c1c(Cl)c(Cl)cnn1Cc1nc2ccccc2c2ccccc12 [Cpd 39] registered its pIC50 at < 4.30

Item: Nc1ccc(S(=O)(=O)c2ccc(Nc3c([N+](=O)[O-])c(Cl)cc4c3no[n+]4[O-])cc2)cc1 [22d] | pIC50: ~4.36

Record [O-][n+]1onc2ccc(/C=C/Sc3ccc(Cl)cc3)cc21 [3d] . Reported pIC50: ~5.10
